Sourced from patent US7973061B2

- TESTED TARGET: ALK (baculovirus expressed human ALK kinase domain F1098-K1410) (Homo sapiens, UniProt Q9UM73)
- Construct: human ALK kinase domain F1098-K1410; made in house
- Sequence (Q9UM73 1098-1410): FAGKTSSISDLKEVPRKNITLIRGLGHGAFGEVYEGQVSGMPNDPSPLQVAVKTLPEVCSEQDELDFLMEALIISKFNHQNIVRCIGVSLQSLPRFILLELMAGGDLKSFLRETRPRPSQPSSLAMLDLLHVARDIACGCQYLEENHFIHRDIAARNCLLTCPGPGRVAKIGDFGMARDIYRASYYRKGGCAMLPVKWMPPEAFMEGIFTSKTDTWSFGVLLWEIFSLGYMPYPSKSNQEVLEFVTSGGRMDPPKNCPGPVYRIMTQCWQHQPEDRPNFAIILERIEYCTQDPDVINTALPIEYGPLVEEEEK
- ASSAY PROCEDURE: biochemical
- COND: 1 μM ATP, 4 μM poly-AEKY, 12 nM ALK, 2 hours at ambient temperature; read-out: ALK IC50
- Method: Kinase activity and compound inhibition are investigated using one or more of the three assay formats described below. The ATP concentrations for each assay are selected to be close to the Michaelis-Menten constant (KM) for each individual kinase. […] ALK biochemical activity was assessed using a Luciferase-Coupled Chemiluminescent Kinase assay (LCCA) format in which kinase activity was measured as the percent ATP remaining following the kinase reaction. […]
MEASURED ATTRIBUTE: IC50

CC(CNC(=O)c1coc(CNC(=O)COc2ccc(OC(F)(F)F)cc2)n1)c1ccccc1 (stereo not drawn) [Entry 259]    500 to 2000 nM

Next, consider the following compound.
Request: State the recorded IC50 for this entry: O=C(NCCc1cccc(Cl)c1)c1csc(CNC(=O)C2(c3ccc(Cl)cc3)CC2)n1 [Entry 236]
Response: 500 to 2000 nM
